Source listed as PubChem BioAssay (NCI).

Tested on: HCC-2998 colon
Assay: NCI-60 one-dose screen, 48 h
Settings: 10 µM
The panel holds about 83,000 compounds, 20% with a hit somewhere; the sample as a whole holds those more often. The source made the active and inactive calls. The calls were made as follows: active = growth percent below 10; inactive = the rest.
Field 'call' accepts t for active, f for inactive

Previously resolved entries follow.
molecule	target-or-test-system	assigned-category
O=C(c1ccccc1)C(c1ccccc1)N1CCOCC1 (stereo not drawn)	HCC-2998 colon	f
CC(C)(C)c1cnc(CSc2cnc(NC(=O)C3CCNCC3)s2)o1	HCC-2998 colon	t
CCCCCCCC(=O)SCC/C=C/[C@@H]1CC(=O)NCc2nc(co2)C2=N[C@@](C)(CS2)C(=O)N[C@@H](C(C)C)C(=O)O1	HCC-2998 colon	t

Outcome? `CCCCCC(=O)OCc1ccc(Cl)c(Cl)c1`
f

Outcome? `Cc1ccc(N)cc1CN1C(=O)c2ccccc2C1=O`
f

Outcome? `C=CC(=O)Nc1cc(Nc2nccc(-c3cn(C)c4ccccc34)n2)c(OC)cc1N(C)CCN(C)C`
t

Outcome? Cc1cc(O)c2c(c1)C1OC(=O)CCCCCN1C1=C2C(=O)c2cccc(OC3CC(O)C(O)C(C)O3)c2C1=O (stereo not drawn)
f

Outcome? `COc1cc2cc(NCc3ccc(F)cc3)nc(C)c2cc1OC`
f

Outcome? `S=C(NCc1ccc2c(c1)OCO2)N1CCN(c2ncnc3c2oc2ccccc23)CC1`
f

Outcome? `COc1ccc(-c2ccc3c(N4CCOC[C@@H]4C)nc(N4CCOC[C@@H]4C)nc3n2)cc1CO`
f

Outcome? `CCn1cc(-c2ccnc3[nH]c(-c4cccc(CN(C)C)c4)cc23)c(-c2ccc(NC(=O)N(C)C)cc2)n1`
f

Outcome? `C=CCN(/C=C1/C(=O)O[C@H](COC)[C@@]2(C)C1=C(O)C(=O)C1=C2[C@H](OC(C)=O)C[C@]2(C)C(=O)CC[C@@H]12)CC=C`
t

Outcome? `C=C1C(=O)O[C@H]2[C@H]1CC/C(Cn1cc(-c3cc(C)c(C)cc3C)nn1)=C\CC[C@@]1(C)O[C@@H]21`
t

Outcome? `CN1CCC(CNc2ccc3ncc(-c4cccc(OC(F)(F)F)c4)n3n2)CC1`
t

Outcome? `COc1c(OCCCN2CCOCC2)ccc2c3n(c(=NC(=O)c4cnc(N)nc4)nc12)CCN3`
t

Outcome? `C=C1[C@@H](O)C[C@H]2C(C)(C)C[C@H](Cl)C[C@]2(C)[C@H]1C[C@H](O)[C@H]1CC(=O)NC1=O`
t

Outcome? `Cc1ccc(Nc2nccc(N(C)c3ccc4c(C)n(C)nc4c3)n2)cc1S(N)(=O)=O`
t

Outcome? `Cc1ccc(F)c(NC(=O)Nc2ccc(-c3cccc4[nH]nc(N)c34)cc2)c1`
t

Outcome? `CCN(CC)CCN1C(=O)c2cccc3c(-c4ccc5c(c4)ncn5C4CCCCC4)ccc(c23)C1=O`
f
